experiment.summary: chemical genetic growth profiling, strain panel (AID 1159580);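 also: tested at 20 µM; growth read once vehicle control cultures reached saturation at 30 °C; 1 = growth at the plate median or of vehicle wells; lower values mean less growth of the strain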
condition.parameters: S. cerevisiae deletion strains, growth OD, locus YHR082C, strain KSP1, hits give low values
In all, about 5,500 compounds went through this assay and about 2,000 (36%) were called active. Roughly 18% stayed inconclusive and do not appear here. Some of the results follow.
metric: normalized growth
Form: value (number only, do not type unit).

// normalized growth lookup, molecule = O=C(NNc1c(Cl)cccc1Cl)c1ccc([N+](=O)[O-])o1 , result: 0.916

response.value for O=C1CSC(=Nc2cc(Cl)cc(Cl)c2)N1Cc1cccnc1 (field: normalized growth) = 1.01

// recorded normalized growth for O=C(OCc1ccc(Oc2ccc(Cl)cc2Cl)c([N+](=O)[O-])c1)c1ccc([N+](=O)[O-])o1 : 1.04

// sample CC1CCc2c(sc3ncnc(Sc4ccccc4)c23)C1 (stereo not given) , its normalized growth was 1.06

molecule CSc1nc(Sc2n[nH]c(-c3ccccc3)n2)cc(Sc2n[nH]c(-c3ccccc3)n2)n1 , normalized growth observed: 1.22

---

experiment.summary: chemical genetic growth profiling, strain panel (AID 1159580);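 also: tested at 20 µM; growth read once vehicle control cultures reached saturation at 30 °C; 1 = growth at the plate median or of vehicle wells; lower values mean less growth of the strain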
condition.parameters: S. cerevisiae deletion strains, growth OD, locus YOR083W, strain WHI5, hits give low values
Hit rate of the full screen: of about 5,500 compounds, about 2,000 (36%) were called active. About 18% were inconclusive and are not listed. This is one part of the list.
Could you please report measured normalized growth for the items listed next?
# print the numeric value only

The recorded normalized growth for Cc1ncc([N+](=O)[O-])n1CCO is 0.954

Notebook: COc1cc(OC)c2c(c1Cl)OC1(C2=O)C(O)=CC(=O)CC1C (stereo not given) , normalized growth read as 1.01

Record O=c1n(CCCN2CCN(c3cccc(Cl)c3)CC2)nc2ccccn12 , field normalized growth: 0.984

Memo: CC(=O)O[C@@H]1CC2C(C)(C)[C@H](O)C[C@H](O)[C@]2(C)C2CC[C@@]3(C)C(=CC(=O)O[C@H]3c3ccoc3)[C@@]21C (stereo not given in full) , reported normalized growth: 0.954

The recorded normalized growth for C=C(C)c1cc2cc(C(C)=O)c(O)cc2o1 is 0.929

C=C1CC2C(CCC3(C)C(=O)CCC23)C2(C)C=CC(=O)C=C12 (stereo not given) yielded normalized growth of 0.994

normalized growth reported for this compound OC[C@@H](O)C(O[C@@H]1O[C@H](CO)[C@H](O)[C@H](O)[C@H]1O)[C@H](O)[C@@H](O)CO (stereo not given in full) : 0.986

Lab note: measured normalized growth of NCCS was 0.983

response.value for OCCN1CCN(CCCN2c3ccccc3Sc3ccc(Cl)cc32)CC1 (field: normalized growth) = 0.991

normalized growth recorded for this compound, O=c1[nH]c2ccccc2n1C1CCN(CCCC(c2ccc(F)cc2)c2ccc(F)cc2)CC1 , is 0.857

---

experiment.summary: chemical genetic growth profiling, strain panel (AID 1159580);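 also: tested at 20 µM; growth read once vehicle control cultures reached saturation at 30 °C; 1 = growth at the plate median or of vehicle wells; lower values mean less growth of the strain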
condition.parameters: S. cerevisiae deletion strains, growth OD, locus YML120C, strain ndi1, hits give low values
The campaign covered roughly 5,500 compounds. About 2,000 (36%) were called active. Another 18% or so got no clear call; they are omitted. The list shows a part of the results.
metric: normalized growth

So for FC(F)(F)COCC(F)(F)F , the logged normalized growth turned out to be 1 (inactive)

Query CC(=O)O[C@@H]1CC2C(C)(C)[C@H](O)C[C@H](O)[C@]2(C)C2CC[C@@]3(C)C(=CC(=O)O[C@H]3c3ccoc3)[C@@]21C (stereo not given in full) yields normalized growth of 1.01 (inactive)

Reported normalized growth for O=c1[nH]c2ccccc2n1CCCN1CCC(n2c(=O)[nH]c3cc(Cl)ccc32)CC1 was 0.962 (inactive)

In plain terms, COc1ccc(Cc2nccc3cc(OC)c(OC)cc23)cc1OC has a documented normalized growth of 1 (inactive)

Notebook: C[C@]12CCC3C(CC[C@H]4CC(=O)CC[C@]34C)C1CCC2=O (stereo not given in full) , normalized growth read as 0.853 (active)
